# Test system: Isocitrate dehydrogenase [NADP] cytoplasmic (Homo sapiens), O75874 [R132C]
# Sequence (O75874 whole entry R132C): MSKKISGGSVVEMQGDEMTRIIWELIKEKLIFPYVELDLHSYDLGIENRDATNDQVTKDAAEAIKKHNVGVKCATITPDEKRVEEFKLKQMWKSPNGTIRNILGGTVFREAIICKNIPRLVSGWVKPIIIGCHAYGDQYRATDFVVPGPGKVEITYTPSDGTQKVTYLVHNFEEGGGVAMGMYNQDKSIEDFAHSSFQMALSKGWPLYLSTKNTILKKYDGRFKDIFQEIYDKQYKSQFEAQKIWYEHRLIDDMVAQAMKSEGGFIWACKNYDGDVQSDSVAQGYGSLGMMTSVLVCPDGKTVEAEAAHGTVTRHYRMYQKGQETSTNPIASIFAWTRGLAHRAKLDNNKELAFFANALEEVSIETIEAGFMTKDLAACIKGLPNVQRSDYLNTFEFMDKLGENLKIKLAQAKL
# experiment: Inhibition of IDH1 R132C mutant (unknown origin) assessed as reduction in NADPH consumption using alpha-KG as substrate at 38 uM incubated for 5 mins by diaphorase/resazurin-coupled system relative to control
attribute_measured: inhibition (%)
The reply should be a number in %, with the unit left off.

Sample answers from the record:
Q: Which inhibition is listed for COc1ncccc1-n1c2c(cc(-c3nc(-c4ccc(Cl)cc4)cs3)c1=O)C(=O)CC(C)(C)C2 ?
A: 80

Q: Which inhibition is listed for CCc1cccc(CC)c1-n1c(C)c(C(=O)NCC(C)C)cc(-c2nc(-c3ccc(Cl)cc3)cs2)c1=O ?
A: 56

Q: Which inhibition is listed for CC1(C)CC(=O)c2cc(-c3nc(-c4ccc(Cl)cc4)cs3)c(=O)n(-c3ccccc3Cl)c2C1 ?
A: 70

Q: Which inhibition is listed for COc1ccc(OC)c(-n2c3c(cc(-c4nc(-c5ccc(Cl)cc5)cs4)c2=O)C(=O)CC3)c1 ?
A: 29

Q: Which inhibition is listed for CCCc1c(C(=O)N2CCNCC2)cc(-c2nc(-c3ccc(Cl)cc3)cs2)c(=O)n1-c1c(CC)cccc1CC ?
A: 82

Q: Which inhibition is listed for COc1ccc(OC)c(-n2c3c(cc(-c4nc(-c5ccc(Cl)cc5)cs4)c2=O)C(=O)CC(C)(C)C3)c1 ?
A: 85

Q: Which inhibition is listed for COc1ccc(OC)c(-n2c3c(cc(-c4nc(-c5ccc(Cl)cc5)cs4)c2=O)C(=O)CCC3)c1 ?
A: 43

Q: Which inhibition is listed for CCc1cccc(CC)c1-n1c(CC2CCNC2)c(C(=O)N2CCNCC2)cc(-c2nc(-c3ccc(Cl)cc3)cs2)c1=O (configuration not stated) ?
A: 52

***
Q: Which inhibition is listed for CC(C)n1c2c(cc(-c3nc(-c4ccc(Cl)cc4)cs3)c1=O)C(=O)CC(C)(C)C2 ?
A: 33

Q: Which inhibition is listed for COc1ccc(OC)c(-n2c3c(cc(-c4nc(-c5ccc(Cl)cc5)cs4)c2=O)CCC(C)(C)C3)c1 ?
A: 64

Q: Which inhibition is listed for COc1cccc(C(=O)O)c1-n1c2c(cc(-c3nc(-c4ccc(Cl)cc4)cs3)c1=O)C(=O)CC(C)(C)C2 ?
A: 108

Q: Which inhibition is listed for CCc1cccc(CC)c1-n1c(C)c(C(=O)N2CCN(C)CC2)cc(-c2nc(-c3ccc(Cl)cc3)cs2)c1=O ?
A: 86

Q: Which inhibition is listed for CCc1cccc(CC)c1-n1c(CC2CC2)c(C(=O)N2CCNCC2)cc(-c2nc(-c3ccc(Cl)cc3)cs2)c1=O ?
A: 96

###

# Test system: Isocitrate dehydrogenase [NADP] cytoplasmic (Homo sapiens), O75874 [R132C]
# experiment: Inhibition of IDH1 R132C mutant (unknown origin) assessed as reduction in NADPH consumption using alpha-KG as substrate at 38 uM incubated for 5 mins by diaphorase/resazurin-coupled system relative to control
attribute_measured: inhibition (%)
The reply should be a number in %, with the unit left off.

Sample answers from the record:
Q: Which inhibition is listed for CC(C)Oc1ccccc1-n1c2c(cc(-c3nc(-c4ccc(Cl)cc4)cs3)c1=O)C(=O)CC(C)(C)C2 ?
A: 77

Q: Which inhibition is listed for CCc1cccc(CC)c1-n1c(CC2CCOCC2)c(C(=O)N2CCNCC2)cc(-c2nc(-c3ccc(Cl)cc3)cs2)c1=O ?
A: 79

***
Q: Which inhibition is listed for COc1ccc(OC)c(-n2c3c(cc(-c4nc(-c5ccccc5)cs4)c2=O)C(=O)CC(C)(C)C3)c1 ?
A: 59

Q: Which inhibition is listed for CCc1cccc(CC)c1-n1c(C)c(C(=O)NCCNC)cc(-c2nc(-c3ccc(Cl)cc3)cs2)c1=O ?
A: 96
